Where these numbers come from: paper PMC5540273

# Tested on: MERTK
# studyConditions: concentration: 1 μM, replicates: in singlicate; n = 1
Decide using %Inh alone. Strictly below 10%: Fulfilled. Equal to or above 10%: Not fulfilled.

compound="O=C(Nc1n[nH]c2nc(-c3ccco3)c(Br)cc12)C1CCN(Cc2ccccc2)C1.O=C(O)[C@H](O)[C@@H](O)C(=O)O (stereo not drawn) [SB-742034]" labelvalue=Fulfilled
compound="COc1ccc(Nc2nccc(NCCNC(=O)Nc3cc(C)ccc3C)n2)cc1 [GSK1379899]" labelvalue="Not fulfilled"
compound="CCn1c(-c2ccccc2)nc2cnccc21 [SB-733416]" labelvalue="Not fulfilled"
compound="Cc1cccc2c(-c3ccncn3)c(-c3ccc(F)cc3)nn12 [GW515532]" labelvalue="Not fulfilled"
compound="COc1cc2ncnc(Nc3cccc(Br)c3)c2cc1OC.Cl [GI230329]" labelvalue="Not fulfilled"
compound="COC(=O)c1cccc(NC(=O)NC2CCN(c3ccnc(Nc4ccc(OC)cc4)n3)C2)c1 (stereo not drawn) [GSK1379746]" labelvalue="Not fulfilled"
compound="COC(=O)C(NC(=O)NC1CCN(c2ccnc(Nc3ccc(F)cc3)n2)C1)c1ccccc1 (stereo not drawn) [GSK1379712]" labelvalue=Fulfilled
compound="Fc1ccc(-c2nn3cccc(F)c3c2-c2ccncc2)cc1 [GW475620]" labelvalue=Fulfilled
compound="Cc1ccc(NC(=O)Nc2ccccc2)cc1-c1ccc(C(=O)Nc2ccncc2)cc1 [GSK1398471]" labelvalue="Not fulfilled"

---

Below are pKd values recorded for CSNK1D.
pKd: −log10 of the molar value.
measuredAttribute: pKd

molsmiles=Fc1ccc(-c2nc[nH]c2-c2ccncc2)cc1 measuredattribute=pKd numericresult=7.39
molsmiles=CCCCc1nn2ncccc2c1-c1ccnc(NC2CC2)n1 measuredattribute=pKd numericresult=6.32
molsmiles=Fc1ccc(-c2nn3cccc(F)c3c2-c2ccncc2)cc1 measuredattribute=pKd numericresult=7.11
molsmiles=Cc1cccc2c(-c3ccncn3)c(-c3ccc(F)cc3)nn12 measuredattribute=pKd numericresult=5.92
molsmiles=Cc1nccc(-c2c(-c3ccc(F)cc3)ncn2CCCN2CCOCC2)n1.Cl measuredattribute=pKd numericresult=7.12

---

# Tested on: DLK
# Construct: gene MAP3K12
# studyConditions: concentration: 1 μM, replicates: in singlicate; n = 1
measuredAttribute: %Inh (%)

molsmiles=CNC(=O)c1ccc(C)c(-n2c(C)cc(OCc3ccc(F)cc3F)c(Br)c2=O)c1 measuredattribute=%Inh unitsymbol=% numericresult=0
molsmiles=Cc1ccccc1Cn1ccn2c(=O)cc(N3CCOCC3)nc12 measuredattribute=%Inh unitsymbol=% numericresult=0
molsmiles=Cn1cncc1-c1cc2c(Nc3ccc(OCc4ccccc4)cc3)ncnc2cn1 measuredattribute=%Inh unitsymbol=% numericresult=27
molsmiles=CC(C)c1cc(-c2ccc3c(N)n[nH]c3c2)nc(N)n1 measuredattribute=%Inh unitsymbol=% numericresult=21
molsmiles=O=c1cc(N2CCOCC2)nc2n(Cc3ccccc3F)ccn12 measuredattribute=%Inh unitsymbol=% numericresult=0

---

# Test system: EPHA7
# studyConditions: concentration: 1 μM, replicates: in singlicate; n = 1
Listed here: items and their measured %Inh.
measuredAttribute: %Inh (%)

compound=CNc1nc(-c2ccc3c(N)n[nH]c3c2)cc(N2C[C@@H](C(=O)Nc3ccccc3)CC[C@H]2C)n1 target=EPHA7 numericresult=1
compound=Fc1ccc(-c2nc3n(c2-c2ccncc2)CCS3)cc1 target=EPHA7 numericresult=4
compound=CS(=O)(=O)CCNCc1nc(-c2ccc3ncnc(Nc4ccc(OCc5ccccc5)c(Cl)c4)c3c2)cs1.Cl target=EPHA7 numericresult=0
compound=COc1cccc(NC(=O)Nc2ccc(C)c(-c3ccc(C(=O)Nc4ccncc4)cc3)c2)c1 target=EPHA7 numericresult=13
compound="COC(=O)c1cccc(NC(=O)NC2CCN(c3ccnc(Nc4ccc(OC)cc4)n3)C2)c1 (stereo not drawn)" target=EPHA7 numericresult=3
compound=Cc1ccc(NC(=O)Nc2ccc(Cl)cc2)cc1-c1ccc(C(=O)Nc2ccncc2)cc1 target=EPHA7 numericresult=7
compound=Fc1ccc(-c2nc[nH]c2-c2ccncc2)cc1 target=EPHA7 numericresult=0
compound=CN1c2ccc(-c3ccc(C(N)=O)cc3)cc2-c2[nH]ncc2S1(=O)=O target=EPHA7 numericresult=0
compound=CNC(=O)c1ccc(C)c(-n2c(C)cc(OCc3ccc(F)cc3F)c(Br)c2=O)c1 target=EPHA7 numericresult=0
compound=Cl.Cl.Cl.N#Cc1ccc(CCNc2nccc(-c3cccc(CN4CCNCC4)c3)n2)cc1 target=EPHA7 numericresult=9
compound=CNc1cc(-c2ccc3c(N)n[nH]c3c2)nc(N)n1 target=EPHA7 numericresult=0
compound=COc1cccc(C2=C(Nc3cc(Cl)c(O)c(Cl)c3)C(=O)NC2=O)c1 target=EPHA7 numericresult=9
compound=O=c1cc(N2CCOCC2)nc2n(Cc3cccc(Cl)c3Cl)c3ccccc3n12 target=EPHA7 numericresult=19
compound=c1ccc(-c2ccnc3[nH]ccc23)cc1 target=EPHA7 numericresult=18
compound=Cc1ccccc1-c1cc(-c2c[nH]nc2-c2ccccn2)ccn1 target=EPHA7 numericresult=14
compound="COc1cccc(CNC(=O)NC2CCN(c3ccnc(Nc4ccc(F)cc4)n3)C2)c1 (stereo not drawn)" target=EPHA7 numericresult=1
compound=CNc1nc(-c2ccc3c(N)n[nH]c3c2)cc(N2C[C@@H](C(=O)NC3CCCCC3)OC[C@H]2C)n1 target=EPHA7 numericresult=8
compound=Cc1ccc(-c2nc(Nc3ccncc3)c3ccccc3n2)s1 target=EPHA7 numericresult=22

---

# Tested on: FRK
# studyConditions: concentration: 1 μM, replicates: in singlicate; n = 1
Each entry below carries its reported %Inh.
measuredAttribute: %Inh

molsmiles=Nc1ncnc2occ(-c3ccc4c(c3)CCN4C(=O)Cc3cc(F)ccc3F)c12 target=FRK measuredattribute=%Inh result=0%
molsmiles=O=c1cc(N2CCOCC2)nc2n(Cc3ccccc3F)ccn12 target=FRK measuredattribute=%Inh result=20%
molsmiles=CS(=O)(=O)Cc1ccc(Nc2nccc(-c3c(-c4cccc(NC(=O)C5CCCCC5)c4)nn4ncccc34)n2)cc1 target=FRK measuredattribute=%Inh result=4%

---

# Tested on: PRKD1
measuredAttribute: Kd

compound="O=C(Nc1n[nH]c2cc(-c3ccsc3)ccc12)C1CC1 [SB-732932]" result="> 10 µM"

---

# System: BRSK2
# studyConditions: concentration: 1 μM, replicates: in singlicate; n = 1
measuredAttribute: %Inh (%)

molsmiles=CC[C@@H]1CO[C@H](C(=O)Nc2ccccc2)CN1c1cc(-c2ccc3c(N)n[nH]c3c2)nc(NC)n1 numericresult=1
molsmiles=Cc1ccccc1-c1cc(-c2c[nH]nc2-c2ccccn2)ccn1 numericresult=0
molsmiles=c1ccc(-c2ccnc3[nH]ccc23)cc1 numericresult=100
molsmiles=CNc1cc(-c2ccc3c(N)n[nH]c3c2)nc(N)n1 numericresult=0

---

# Test system: CLK4
# studyConditions: concentration: 1 μM, replicates: in singlicate; n = 1
measuredAttribute: %Inh (%)

molecule="Cc1ccc(-c2nc(Nc3ccncc3)c3ccccc3n2)s1 [GSK189015]" target=CLK4 numericresult=28
molecule="CS(=O)(=O)CCNCc1nc(-c2ccc3ncnc(Nc4ccc(OCc5ccccc5)c(Cl)c4)c3c2)cs1.Cl [GW582764]" target=CLK4 numericresult=6
molecule="CC[C@@H]1CO[C@H](C(=O)Nc2ccccc2)CN1c1cc(-c2ccc3c(N)n[nH]c3c2)nc(NC)n1 [GSK2376236]" target=CLK4 numericresult=0
molecule=CNC(=O)c1ccc(C)c(-n2c(C)cc(OCc3ccc(F)cc3F)c(Br)c2=O)c1 target=CLK4 numericresult=0
molecule="CNc1nc(-c2ccc3c(N)n[nH]c3c2)cc(N2C[C@@H](C(=O)NC3CCCCC3)OC[C@H]2C)n1 [GSK2375584]" target=CLK4 numericresult=20
molecule="Cn1cncc1C(=O)NC1CCN(c2ccnc(Nc3ccc(F)cc3)n2)C1 (centres unmarked) [GSK1379717]" target=CLK4 numericresult=0
molecule=CNCc1ccc2nc(NC(=O)c3ccc(C(C)(C)C)cc3)cn2c1 target=CLK4 numericresult=3
molecule="CC(=O)c1cccc(NC(=O)NC2CCN(c3ccnc(Nc4ccc(F)cc4)n3)C2)c1 (centres unmarked) [GSK1379710]" target=CLK4 numericresult=0
molecule="NS(=O)(=O)c1cccc(N/C=C2\\C(=O)Nc3ccc(S(=O)(=O)Cc4c(Cl)cccc4Cl)cc32)c1 [GSK398099]" target=CLK4 numericresult=0
molecule="Nc1ncnc2occ(-c3ccc4c(c3)CCN4C(=O)Cc3cc(F)ccc3F)c12 [GSK2645446]" target=CLK4 numericresult=0
molecule="CS(=O)(=O)CCNCc1nc(-c2ccc3ncnc(Nc4ccc5c(cnn5Cc5ccccc5)c4)c3c2)cs1.Cl.Cl [GW569716]" target=CLK4 numericresult=5
molecule="COc1ccc(Nc2nccc(N3CCC(NC(=O)c4cc5ccccc5s4)C3)n2)cc1 (centres unmarked) [GSK1379738]" target=CLK4 numericresult=0
molecule="Cc1cnc(N)c(/C=C/c2cncc(C(=O)NCCc3ccc(Cl)cc3Cl)c2)c1.Cl [GSK190937]" target=CLK4 numericresult=57
molecule="Fc1ccc(-c2nn3cccc(F)c3c2-c2ccncc2)cc1 [GW475620]" target=CLK4 numericresult=26
molecule="COc1ccc(Nc2nccc(NCCNC(=O)Nc3cc(C)ccc3C)n2)cc1 [GSK1379899]" target=CLK4 numericresult=57
molecule=COc1ccc(CSc2nnc(-c3ccc4ncsc4c3)o2)cc1C(F)(F)F target=CLK4 numericresult=83
molecule=CC(=O)c1c(C)c2cnc(Nc3ccc(N4CCNCC4)cn3)nc2n(C2CCCC2)c1=O target=CLK4 numericresult=13
molecule=COc1ccc(-c2coc3ccc(-c4nnc(C)o4)cc23)cc1 target=CLK4 numericresult=27
molecule="Cc1ccc(NC(=O)Nc2ccccc2)cc1-c1ccc(C(=O)Nc2ccncc2)cc1 [GSK1398471]" target=CLK4 numericresult=14
molecule="COc1nccc(-c2c(-c3ccc(F)cc3)ncn2CCCN2CCOCC2)n1 [SB-282852]" target=CLK4 numericresult=5
molecule="Nc1nccc(-c2c(-c3ccc(F)cc3)ncn2C2CCN(Cc3ccccc3)CC2)n1 [SB-219980]" target=CLK4 numericresult=0
molecule="Fc1ccc(-c2nc3n(c2-c2ccncc2)CCS3)cc1 [GI98581]" target=CLK4 numericresult=9
molecule="COc1ccc2cc(-c3nc(-c4ccccc4C(C)C)[nH]c3-c3ccncc3)ccc2c1 [SB-660566]" target=CLK4 numericresult=0
molecule="CC(C)c1ccc(O)cc1Nc1ccnc2ccc(C(F)(F)F)cc12 [GW482059]" target=CLK4 numericresult=32
molecule="CCn1c(-c2c(N)noc2C)nc2cnccc21 [SB-737856]" target=CLK4 numericresult=13
molecule=COc1ccc(CSc2nnc(-c3ccc4nccn4c3)o2)cc1C(F)(F)F target=CLK4 numericresult=90.3
molecule="Cc1c(Cn2c(C)c(C)n3c(=O)cc(N4CCOCC4)nc23)cccc1C(F)(F)F [GSK2328680]" target=CLK4 numericresult=21
molecule="COc1ccc(Nc2nccc(-c3ccc(NC(=O)c4cc5cc(F)ccc5[nH]4)cc3)n2)cc1 [GSK1229496]" target=CLK4 numericresult=18
molecule="COc1cc2ncnc(Nc3cccc(Br)c3)c2cc1OC.Cl [GI230329]" target=CLK4 numericresult=15
molecule="O=c1cc(N2CCOCC2)nc2n(Cc3cccc(Cl)c3Cl)c3ccccc3n12 [GSK2299009]" target=CLK4 numericresult=8
molecule="FC(F)(F)c1ccccc1-c1cc(-c2c[nH]nc2-c2ccccn2)ccn1 [GW679396]" target=CLK4 numericresult=21
molecule=CCc1ccc(-c2ccc3c(c2)-c2n[nH]cc2S(=O)(=O)N3C)cc1 target=CLK4 numericresult=4
molecule="O=c1cc(N2CCOCC2)nc2n(Cc3ccccc3F)ccn12 [GSK2297428]" target=CLK4 numericresult=54
molecule=CN1c2ccc(-c3ccc(C(N)=O)cc3)cc2-c2[nH]ncc2S1(=O)=O target=CLK4 numericresult=15
molecule="CNc1cc(-c2ccc3c(N)n[nH]c3c2)nc(N)n1 [GSK2224810]" target=CLK4 numericresult=89
molecule="Cc1ccc(NC(=O)Nc2ccc(Cl)c(C(F)(F)F)c2)cc1-c1ccc(C(=O)Nc2ccncc2)cc1 [GSK1398470]" target=CLK4 numericresult=24
molecule="O=C1NC(=O)C(c2ccc(Cl)cc2)=C1Nc1cccc(Cl)c1 [SB-317651]" target=CLK4 numericresult=16
molecule="O=C1NC(=O)C(c2ccc(Cl)cc2)=C1Nc1ccc(O)cc1 [SB-340867]" target=CLK4 numericresult=29
